Reported pIC50 values for a set of molecules
Molecular target: FL hMALT1 enzyme (Homo sapiens);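 further: Cell-free protease assay: enzyme preincubated with compound 30 min at room temperature, then cleavage of fluorogenic Ac-LVSR-AMC substrate (100 µM) tracked by fluorescence (ex 360/em 460 nm)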
Sequence (Q9UDY8 whole entry): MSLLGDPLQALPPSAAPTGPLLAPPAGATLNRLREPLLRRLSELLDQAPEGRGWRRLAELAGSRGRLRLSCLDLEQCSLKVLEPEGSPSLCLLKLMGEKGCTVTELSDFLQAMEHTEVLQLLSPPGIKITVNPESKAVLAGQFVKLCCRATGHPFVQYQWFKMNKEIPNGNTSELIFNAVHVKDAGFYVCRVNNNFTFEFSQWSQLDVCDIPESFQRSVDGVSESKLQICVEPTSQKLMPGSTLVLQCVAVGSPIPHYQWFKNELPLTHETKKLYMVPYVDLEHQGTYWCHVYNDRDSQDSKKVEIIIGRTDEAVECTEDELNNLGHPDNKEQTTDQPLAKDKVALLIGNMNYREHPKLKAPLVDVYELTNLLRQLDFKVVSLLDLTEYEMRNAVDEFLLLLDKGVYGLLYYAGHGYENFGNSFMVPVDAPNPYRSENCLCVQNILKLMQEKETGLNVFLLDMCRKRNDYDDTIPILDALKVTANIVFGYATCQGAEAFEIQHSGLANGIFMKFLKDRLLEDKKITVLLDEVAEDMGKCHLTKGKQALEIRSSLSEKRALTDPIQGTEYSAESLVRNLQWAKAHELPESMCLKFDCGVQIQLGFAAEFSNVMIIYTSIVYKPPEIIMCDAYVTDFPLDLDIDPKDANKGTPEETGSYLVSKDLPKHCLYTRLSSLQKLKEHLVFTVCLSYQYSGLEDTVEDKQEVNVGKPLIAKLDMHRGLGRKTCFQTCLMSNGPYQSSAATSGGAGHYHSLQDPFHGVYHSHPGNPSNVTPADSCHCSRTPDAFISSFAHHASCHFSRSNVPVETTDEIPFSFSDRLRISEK
Experiment: biochemical
# reply with the number alone; pIC50 is -log10 of concentration in mol/L

### Prompt Fill blank: measured pIC50 of the molecule CN([C@@H](c1ccc(NC2Cc3ccccc3C2(C)C)cc1)C(F)(F)F)S(=O)(=O)C1CC1 (single isomer, unassigned) [Example 79] is ____.
### Response 6.14

### Prompt Would you kindly share the measured pIC50 for CN1CC(=O)NCC1C(=O)N(C)[C@@H](c1ccc(N[C@H]2Cc3ccccc3C2(C)C)cn1)C(F)(F)F (single isomer, unassigned) [Example 202] ?
### Response 6.80
